Tested System: T1, LIN7B, Q9HAP6
T1 sequence (Q9HAP6 88-185, limits assumed, looked up): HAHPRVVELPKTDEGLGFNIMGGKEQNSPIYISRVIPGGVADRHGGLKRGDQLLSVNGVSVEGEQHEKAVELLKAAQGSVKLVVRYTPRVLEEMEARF
Test Details: holdup assay
Set-up: key: below the threshold = too weak to quantify, mostly under pKd 3.1 to 4
Condition Parameters: plain residues with an end cap or a label only (N-terminal biotin on a linker: ado-ado)
In this section we review reported pKd values for a set of binders.
Recorded Metric: pKd

binder="PRISRSQSEL [CCDC134, Q9H6E4]" result=3.62
binder="HLRARKSEWV [GJD4, Q96KN9]" result=3.81
binder="DDEDRLVIEI [ZNF831, Q5JPB2]" result=3.56
binder="GNSVLKSTQF [SLC22A12, Q96S37]" result=3.71
binder="TPPAAKKSRI [BAZ1A, Q9NRL2]" result=3.62
binder="KKAPTNEFYA [SDC4, P31431]" result=3.74
binder="LRSPRTPSEV [OR10G3, Q8NGC4]" result=3.85
binder="RKPKPSSSCC [RAB9A, P51151]" result=3.75
binder="SKENVQETQI [LRRC4B, Q9NT99]" result=4.13
binder="KKMPSIESDV [GRIN2A, Q12879]" result=3.71
